The reported measurements were obtained from ChEMBL document CHEMBL4002577.

- Test system: Staphylococcus aureus
- measurement_protocol: Antibacterial activity against mupirocin/rifampicin-resistant Staphylococcus aureus RN4220 NRS107 clinical isolate after 18 to 20 hrs by broth microdilution method
- Type: functional
We begin with a simple list: items and their reported MIC.
observed_property: MIC (µg/mL)

- smi: "C/C=C/COc1ccc(-c2nc(C)c(/C(C)=N/NC(=N)N)s2)cc1"
  observed_property: "MIC"
  recorded_result: 32
- smi: "CCCCCCOc1ccc(-c2nc(C)c(/C(C)=N/NC(=N)N)s2)cc1"
  observed_property: "MIC"
  recorded_result: 4
- smi: "CCCCCCCOc1ccc(-c2nc(C)c(/C(C)=N/NC(=N)N)s2)cc1"
  observed_property: "MIC"
  recorded_result: 2
- smi: "C/C(=N\\NC(=N)N)c1sc(-c2ccc(OCCC(C)C)cc2)nc1C"
  observed_property: "MIC"
  recorded_result: 16
- smi: "CCCCCCCCOc1ccc(-c2nc(C)c(/C(C)=N/NC(=N)N)s2)cc1"
  observed_property: "MIC"
  recorded_result: 4
- smi: "C/C(=N\\NC(=N)N)c1sc(-c2ccc(OCC(C)C)cc2)nc1C"
  observed_property: "MIC"
  recorded_result: 32
- smi: "C/C(=N\\NC(=N)N)c1sc(-c2ccc(OC3CCCCCC3)cc2)nc1C"
  observed_property: "MIC"
  recorded_result: 4
- smi: "CCCCCCCCCOc1ccc(-c2nc(C)c(/C(C)=N/NC(=N)N)s2)cc1"
  observed_property: "MIC"
  recorded_result: 16
- smi: "C/C(=N\\NC(=N)N)c1sc(-c2ccc(OC3CCCC3)cc2)nc1C"
  observed_property: "MIC"
  recorded_result: 8
- smi: "C/C(=N\\NC(=N)N)c1sc(-c2ccc(OCCCC(C)C)cc2)nc1C"
  observed_property: "MIC"
  recorded_result: 16

----------
- Tested on: Staphylococcus aureus
- measurement_protocol: Bactericidal activity against methicillin/erythromycin/tetracycline-resistant Staphylococcus aureus USA300 NRS384 clinical isolate after 24 hrs
- Type: functional
- condition_description: USA300 NRS384, 24 h

- smi: "C/C(=N\\NC(=N)N)c1sc(-c2ccc(OCCC(C)C)cc2)nc1C"
  tested_system: "Staphylococcus aureus"
  unit_abbreviation: "µg/mL"
  measurement_qualifier: "="
  MBC: 32
- smi: "CCCCCCCCOc1ccc(-c2nc(C)c(/C(C)=N/NC(=N)N)s2)cc1"
  tested_system: "Staphylococcus aureus"
  unit_abbreviation: "µg/mL"
  measurement_qualifier: "="
  MBC: 4
- smi: "C/C(=N\\NC(=N)N)c1sc(-c2ccc(OCC(C)C)cc2)nc1C"
  tested_system: "Staphylococcus aureus"
  unit_abbreviation: "µg/mL"
  measurement_qualifier: "="
  MBC: 32
- smi: "C/C=C/COc1ccc(-c2nc(C)c(/C(C)=N/NC(=N)N)s2)cc1"
  tested_system: "Staphylococcus aureus"
  unit_abbreviation: "µg/mL"
  measurement_qualifier: ">"
  MBC: 32
- smi: "C/C(=N\\NC(=N)N)c1sc(-c2ccc(OC3CCCCCC3)cc2)nc1C"
  tested_system: "Staphylococcus aureus"
  unit_abbreviation: "µg/mL"
  measurement_qualifier: "="
  MBC: 16

----------
- Tested on: Staphylococcus aureus
- measurement_protocol: Antibacterial activity against methicillin-resistant Staphylococcus aureus USA400 NRS123 clinical isolate after 18 to 20 hrs by broth microdilution method
- Assay type: functional
observed_property: MIC (µg/mL)

- smi: "C/C(=N\\NC(=N)N)c1sc(-c2ccc(OCCC(C)C)cc2)nc1C"
  tested_system: "Staphylococcus aureus"
  recorded_result: 16
- smi: "CCCCCCCOc1ccc(-c2nc(C)c(/C(C)=N/NC(=N)N)s2)cc1"
  tested_system: "Staphylococcus aureus"
  recorded_result: 2
- smi: "C/C=C/COc1ccc(-c2nc(C)c(/C(C)=N/NC(=N)N)s2)cc1"
  tested_system: "Staphylococcus aureus"
  recorded_result: 32
- smi: "C/C(=N\\NC(=N)N)c1sc(-c2ccc(OC3CCCCCC3)cc2)nc1C"
  tested_system: "Staphylococcus aureus"
  recorded_result: 4
- smi: "CCCCCCOc1ccc(-c2nc(C)c(/C(C)=N/NC(=N)N)s2)cc1"
  tested_system: "Staphylococcus aureus"
  recorded_result: 4
- smi: "C/C(=N\\NC(=N)N)c1sc(-c2ccc(OC3CCCC3)cc2)nc1C"
  tested_system: "Staphylococcus aureus"
  recorded_result: 8
- smi: "CCCCCCCCOc1ccc(-c2nc(C)c(/C(C)=N/NC(=N)N)s2)cc1"
  tested_system: "Staphylococcus aureus"
  recorded_result: 4
- smi: "C/C(=N\\NC(=N)N)c1sc(-c2ccc(OCCCC(C)C)cc2)nc1C"
  tested_system: "Staphylococcus aureus"
  recorded_result: 16
- smi: "CCCCCCCCCOc1ccc(-c2nc(C)c(/C(C)=N/NC(=N)N)s2)cc1"
  tested_system: "Staphylococcus aureus"
  recorded_result: 16
- smi: "C/C(=N\\NC(=N)N)c1sc(-c2ccc(OCC(C)C)cc2)nc1C"
  tested_system: "Staphylococcus aureus"
  recorded_result: 16
